Where do these numbers come from? They come from patent US12071453B2.

The entries below come with measured IC50 values attached.
- target.or.test.system: [35S]-TBPS binding in rat brain cortical membranes
- assay: Steroid inhibition of [35S]-TBPS binding, rat brain cortical membranes
- measurement.setup: 3 nM [35S]-TBPS, in the presence of 5 μM GABA, read-out: 35S-TBPS Radioligand Displacement (IC50)

[
  {
    "chemical.string": "CCOC[C@]12CC[C@@](C)(O)C[C@@H]1CC[C@H]1[C@@H]3CC[C@H](C(=O)Cn4nnc5ccc(Cl)cc54)[C@@]3(C)CC[C@@H]12",
    "IC50": "50 to 100 nM"
  },
  {
    "chemical.string": "COC[C@]12CC[C@@](C)(O)C[C@H]1CC[C@H]1[C@@H]3CC[C@H](C(=O)Cn4cc(C)cn4)[C@@]3(C)CC[C@@H]12",
    "IC50": "50 to 100 nM"
  },
  {
    "chemical.string": "C[C@@]1(O)CC[C@@]2(CO)[C@@H](CC[C@H]3[C@@H]4CC[C@H](C(=O)Cn5nccn5)[C@@]4(C)CC[C@@H]32)C1",
    "IC50": "> 500 nM"
  },
  {
    "chemical.string": "COC[C@]12CC[C@@](C)(O)C[C@@H]1CC[C@H]1[C@@H]3CC[C@H](C(=O)Cn4ncnn4)[C@@]3(C)CC[C@@H]12",
    "IC50": "10 to 50 nM"
  },
  {
    "chemical.string": "COC[C@]12CC[C@@](C)(O)C[C@H]1CC[C@H]1[C@@H]3CC[C@H](C(=O)Cn4nnc5cc(F)ccc54)[C@@]3(C)CC[C@@H]12",
    "IC50": "10 to 50 nM"
  },
  {
    "chemical.string": "COC[C@]12CC[C@@](C)(O)C[C@@H]1CC[C@H]1[C@@H]3CC[C@H](C(=O)Cn4cc5ccc(F)cc5n4)[C@@]3(C)CC[C@@H]12",
    "IC50": "50 to 100 nM"
  },
  {
    "chemical.string": "COC[C@]12CC[C@@](C)(O)C[C@H]1CC[C@H]1[C@@H]3CC[C@H](C(=O)Cn4nc5cccc(F)c5n4)[C@@]3(C)CC[C@@H]12",
    "IC50": "< 10 nM"
  },
  {
    "chemical.string": "COC[C@]12CC[C@@](C)(O)C[C@@H]1CC[C@H]1[C@@H]3CC[C@H](C(=O)Cn4nc5ccc(OC)c(OC)c5n4)[C@@]3(C)CC[C@@H]12",
    "IC50": "10 to 50 nM"
  },
  {
    "chemical.string": "COC[C@]12CC[C@@](C)(O)C[C@@H]1CC[C@H]1[C@@H]3CC[C@H](C(=O)Cn4nnc5cc(Cl)ccc54)[C@@]3(C)CC[C@@H]12",
    "IC50": "10 to 50 nM"
  },
  {
    "chemical.string": "COC[C@]12CC[C@@](C)(O)C[C@@H]1CC[C@H]1[C@@H]3CC[C@H](C(=O)Cn4nnc5c(F)cccc54)[C@@]3(C)CC[C@@H]12",
    "IC50": "10 to 50 nM"
  },
  {
    "chemical.string": "CCOC[C@]12CC[C@@](C)(O)C[C@@H]1CC[C@H]1[C@@H]3CC[C@H](C(=O)Cn4cc(C#N)cn4)[C@@]3(C)CC[C@@H]12",
    "IC50": "10 to 50 nM"
  },
  {
    "chemical.string": "COC[C@]12CC[C@@](C)(O)C[C@@H]1CC[C@H]1[C@@H]3CC[C@H](C(=O)Cn4nc5ccc(F)c(F)c5n4)[C@@]3(C)CC[C@@H]12",
    "IC50": "10 to 50 nM"
  },
  {
    "chemical.string": "COC[C@]12CC[C@@](C)(O)C[C@@H]1CC[C@H]1[C@@H]3CC[C@H](C(=O)Cn4nnc5ccc(OC)cc54)[C@@]3(C)CC[C@@H]12",
    "IC50": "10 to 50 nM"
  },
  {
    "chemical.string": "COC[C@]12CC[C@@](C)(O)C[C@@H]1CC[C@H]1[C@@H]3CC[C@H](C(=O)Cn4ncc5ncc(Cl)cc54)[C@@]3(C)CC[C@@H]12",
    "IC50": "10 to 50 nM"
  },
  {
    "chemical.string": "COC[C@]12CC[C@@](C)(O)C[C@@H]1CC[C@H]1[C@@H]3CC[C@H](C(=O)CN4CCN(C(C)=O)CC4)[C@@]3(C)CC[C@@H]12",
    "IC50": "> 500 nM"
  },
  {
    "chemical.string": "COC[C@]12CC[C@@](C)(O)C[C@@H]1CC[C@H]1[C@@H]3CC[C@H](C(=O)Cn4nnc5c(OC)cccc54)[C@@]3(C)CC[C@@H]12",
    "IC50": "< 10 nM"
  },
  {
    "chemical.string": "COC[C@]12CC[C@@](C)(O)C[C@@H]1CC[C@H]1[C@@H]3CC[C@H](C(=O)Cn4cc5nccnc5n4)[C@@]3(C)CC[C@@H]12",
    "IC50": "> 500 nM"
  }
]
